tested on: CCRF-CEM leukemia; experiment: NCI tumour cell line growth inhibition, 48 h; in the data active = GI50 below about 0.43 µM; inactive = the rest
Possible outcomes: class 1 (active), class 0 (inactive)

>  <Compound>
COc1ccc(-c2cn(-c3cc(OC)c(OC)c(OC)c3)c(SCc3ccccc3)n2)cc1OC

>  <Label value>
class 0

$$$$
>  <Compound>
COc1ccc(-c2nc(-c3nc4ccc(OC)cc4[nH]3)c3ccccn23)cc1

>  <Label value>
class 0

$$$$
>  <Compound>
COc1cc(NC(C)CCCNC2CN3CCC2CC3)c2ncccc2c1 (stereo not given)

>  <Label value>
class 0

$$$$
>  <Compound>
CN[C@@H](C)C(=O)N[C@H](C(=O)N1CCC[C@H]1C(=O)Nc1snnc1-c1ccccc1)C1CCCCC1

>  <Label value>
class 0

$$$$
>  <Compound>
COc1cc(CSc2nc3ccc(C)cc3c(=O)n2-c2ccccc2)cc(OC)c1OC

>  <Label value>
class 0

$$$$
>  <Compound>
COc1ccc(-c2cc(=O)[nH]c3c(OC)c4ccccc4c(OC)c23)cc1

>  <Label value>
class 1

$$$$
>  <Compound>
COc1cc2c(c(OC)c1OC)-c1ccc(SC)c(=O)cc1C(CO)C2 (stereo not given)

>  <Label value>
class 1

$$$$
>  <Compound>
COc1ccc(C(=O)c2cc(OC)c(OC)c(OC)c2)cc1OC(=O)CCl

>  <Label value>
class 1

$$$$
>  <Compound>
C(#Cc1ccccc1C#Cc1cccs1)c1cccs1

>  <Label value>
class 0

$$$$
>  <Compound>
COc1cc(/C=C/C(=O)c2cccc(Nc3nc(Nc4ccccc4)nc(Nc4ccccc4)n3)c2)cc(OC)c1OC

>  <Label value>
class 0

$$$$
